Quick list: melting point per entry.

{"structure_notation": "CCCc1cccc(NC(=O)Nc2csc(-c3ccccn3)n2)n1", "melting point": "210 to 212 °C"}
{"structure_notation": "CN(C)CCNc1cccc(NC(=O)Nc2csc(-c3ccncc3)n2)n1", "melting point": "210 to 212 °C"}
{"structure_notation": "CN1CCN(c2cccc(NC(=O)Nc3csc(-c4ccncc4)n3)n2)CC1", "melting point": "251 to 253 °C"}
{"structure_notation": "CCCc1cccc(NC(=O)Nc2csc(-c3cccc(OC)c3)n2)n1", "melting point": "192 to 194 °C"}
{"structure_notation": "CCc1ccnc(NC(=O)Nc2csc(-c3ccccn3)n2)c1", "melting point": "196 to 198 °C"}
{"structure_notation": "CC(C)(C)c1cc(NC(=O)Nc2csc(-c3cccnc3)n2)no1", "melting point": "230 to 232 °C"}
{"structure_notation": "NC(=O)c1ccc(NC(=O)Nc2csc(-c3ccncc3)n2)nc1", "melting point": "255 to 257 °C"}
{"structure_notation": "CCc1cccc(NC(=O)Nc2csc(-c3ccccn3)n2)n1", "melting point": "213 to 215 °C"}
{"structure_notation": "CCCc1cccc(NC(=O)Nc2csc(-c3ccc(O)cc3)n2)n1", "melting point": "227 to 229 °C"}
